Tested on: Amaranthus retoflexus (AMARE)
Experiment: Pre-emergence herbicidal glasshouse test on Amaranthus retoflexus
Type: in vivo
Settings: pre-emergence; 1000 g/h; evaluated after 13 days
measured.metric: PRE Application AMARE herbicidal damage (five point scale)

compound_string=COc1c(Cl)ccc(-c2cnn(C)c(=O)c2O)c1F measured_value="1 (1=0-19% damage)"
compound_string=Cn1ncc(-c2ccc(C(F)(F)F)nc2O)c(O)c1=O measured_value="1 (1=0-19% damage)"
compound_string=Cn1ncc(-c2ccc(F)cc2C(F)(F)F)c(O)c1=O measured_value="1 (1=0-19% damage)"
compound_string=Cn1ncc(-c2cccc3ccccc23)c(O)c1=O measured_value="1 (1=0-19% damage)"
compound_string=COc1ccc(Cl)c(-c2cnn(C)c(=O)c2O)c1 measured_value="1 (1=0-19% damage)"

Would you mind giving PRE Application AMARE herbicidal damage (five point scale) for every molecule in the list below?
1. Cn1ncc(-c2ccc(C(F)(F)F)cc2S(=O)(=O)Cc2ccccc2)c(O)c1=O
2. Cn1ncc(-c2ccc(C(F)(F)F)cc2S(C)(=O)=O)c(OC(=O)c2ccccc2)c1=O
3. COc1ccc(Cn2ncc(-c3ccc(Cl)cc3S(C)(=O)=O)c(O)c2=O)cc1
4. C=Cc1ccccc1-c1c(C(F)(F)F)ccn(-c2cnn(C)c(=O)c2O)c1=O

Result:
1: 2 (2=20-39% damage); 2: 5 (5=80-100% damage); 3: 5 (5=80-100% damage); 4: 5 (5=80-100% damage)
